TARGET ENTITY: HGFR (Homo sapiens, UniProt P08581)
Construct: purchased Upstate 14-526
Sequence (P08581 974-1390 limits assumed): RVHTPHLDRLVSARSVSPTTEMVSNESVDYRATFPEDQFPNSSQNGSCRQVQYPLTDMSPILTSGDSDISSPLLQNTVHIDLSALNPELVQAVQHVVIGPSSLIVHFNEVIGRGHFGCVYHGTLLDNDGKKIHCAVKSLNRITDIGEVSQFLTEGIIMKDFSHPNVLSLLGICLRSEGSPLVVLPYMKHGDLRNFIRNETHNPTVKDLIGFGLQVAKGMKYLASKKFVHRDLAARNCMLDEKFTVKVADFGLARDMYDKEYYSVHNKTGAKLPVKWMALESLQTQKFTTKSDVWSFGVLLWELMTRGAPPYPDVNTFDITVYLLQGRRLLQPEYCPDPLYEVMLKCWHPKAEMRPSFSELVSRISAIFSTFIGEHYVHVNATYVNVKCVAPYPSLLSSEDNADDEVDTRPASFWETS
METHOD SUMMARY: HGFR continuous-coupled spectrophotometric assay (tyrosine kinase activity on Met-2 substrate peptide)
Type: biochemical
CONDITION DETAILS: HGFR 50 nM, Met-2 peptide 0.5 mM, ATP 300 μM, 37° C., absorbance 340 nm; read-out: Ki
Where a name gives a salt, the structure may show the parent alone.
MEASURE NAME: log10 of Ki (log10 of the value in nM)

[
  {
    "COMPOUND": "OC1(C(F)(F)F)CCN([C@@H]2CCN(c3cnc4nnn(Cc5ccc6ncccc6c5)c4n3)C2)CC1",
    "log10 of Ki": 1.30
  },
  {
    "COMPOUND": "CN(C)CCN(C)C(=O)c1ccc(-c2cnc3nnn(Cc4ccc5ncccc5c4)c3n2)cc1",
    "log10 of Ki": 1.58
  },
  {
    "COMPOUND": "NC[C@H]1CCN(c2cnc3nnn(Cc4ccc5ncccc5c4)c3n2)C1",
    "log10 of Ki": 1.48
  },
  {
    "COMPOUND": "CC(C)(C)OC(=O)N[C@@H]1CCN(c2cnc3nnn(Cc4ccc5ncccc5c4)c3n2)C1",
    "log10 of Ki": 2.21
  },
  {
    "COMPOUND": "CC1(C)CN(c2cnc3nnn(Cc4ccc5ncccc5c4)c3n2)C(=O)N1",
    "log10 of Ki": 2.81
  },
  {
    "COMPOUND": "OC[C@@H]1CCCN1c1cnc2nnn(Cc3ccc4ncccc4c3)c2n1",
    "log10 of Ki": 1.81
  },
  {
    "COMPOUND": "CNC1CCN(c2cnc3nnn(Cc4ccc5ncccc5c4)c3n2)CC1",
    "log10 of Ki": 1.54
  },
  {
    "COMPOUND": "c1cnc2ccc(Cn3nnc4ncc(N5CC[C@@H](N6CCOCC6)C5)nc43)cc2c1 [Example 206, TFA salt]",
    "log10 of Ki": 1.34
  }
]
